tested on: E. coli; type: cell-based, Escherichia coli; conditions: E.coli TEM104; Suppl. Figure 5; Replicate1
quantity.measured: FICi values
Numbers only.

substance	val
Ac-RLPPFLHNRRPRLPPFLRQRR-NH2 [Pro2]	0.75
Ac-RPTPFLHNRRPRPTPFLRQRR-NH2 [Pro3]	2
Ac-RLTPFPHNRRPRLTPFPRQRR-NH2 [Pro4]	2

Tell me reported FICi values for Ac-RPTAPLHNRRPRPTAPLRQRR-NH2 [Pro1] , tested with E. coli. 2

====

system: E. coli; type: cell-based, Escherichia coli; settings: E.coli TEM104; Suppl. Figure 5; Replicate2
Provide the reported FICi values of each item.
Numbers only.

Examples with their reported FICi values follow.
substance	quantity.measured	val
Ac-RPTPFLHNRRPRPTPFLRQRR-NH2 [Pro3]	FICi values	2
Ac-RPTAPLHNRRPRPTAPLRQRR-NH2 [Pro1]	FICi values	2

Now take the following substance into account.
So what's the measured FICi values for this one? Ac-RLPPFLHNRRPRLPPFLRQRR-NH2 [Pro2] 0.625
